Source of measurements: patent US20190284293A1

The entries below are paired with their reported % Rmax hCD16a-V158.
# ASSAY_SYSTEM: CD16a-V158 (FcgRIIIa-V158) (Homo sapiens, UniProt P08637, F176V)
# Sequence (P08637 17-208 F176V limits assumed): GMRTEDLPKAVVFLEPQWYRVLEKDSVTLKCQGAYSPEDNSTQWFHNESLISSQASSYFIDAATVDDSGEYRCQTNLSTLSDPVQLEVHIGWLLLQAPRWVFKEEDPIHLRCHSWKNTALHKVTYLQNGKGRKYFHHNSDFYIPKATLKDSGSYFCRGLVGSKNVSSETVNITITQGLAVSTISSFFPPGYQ
# RUN_DESCRIPTION: SPR, antibody binding to anti-his Fab captured FcgR-his (% Rmax)
# REPORTED_CONDITIONS: 1 μM antibody
Answer with a number only, understood to be in %.

>  <MOLECULE>
mAb13-IgG2.3 (protein, left off: another chain or arm of the molecule) constant: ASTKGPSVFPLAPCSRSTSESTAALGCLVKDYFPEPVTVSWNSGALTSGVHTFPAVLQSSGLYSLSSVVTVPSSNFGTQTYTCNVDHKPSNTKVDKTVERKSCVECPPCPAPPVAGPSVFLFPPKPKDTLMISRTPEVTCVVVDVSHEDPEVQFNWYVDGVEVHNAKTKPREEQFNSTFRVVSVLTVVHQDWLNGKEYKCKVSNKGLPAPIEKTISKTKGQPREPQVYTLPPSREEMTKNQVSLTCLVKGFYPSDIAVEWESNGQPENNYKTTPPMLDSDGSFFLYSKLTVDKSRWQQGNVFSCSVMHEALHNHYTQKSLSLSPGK

>  <VALUE_REPORTED>
1

$$$$

Now turn to the next molecule.
Qu. Which % Rmax hCD16a-V158 value is on record for mAb10-IgG2.3G1-AY-V27 (protein, left off: another chain or arm of the molecule) constant: ASTKGPSVFPLAPCSRSTSESTAALGCLVKDYFPEPVTVSWNSGALTSGVHTFPAVLQSSGLYSLSSVVTVPSSNFGTQTYTCNVDHKPSNTKVDKTVERKSCVECPPCPAPELLGGPSVFLFPPKPKDTLMISRTPEVTCVVVDVEHEDPEVKFNWYVDGVEVHNAKTKPREEQYNSTYRVVSVLTVLHQDWLNGKEYKCKVSNKALPAPIEKTISKAKGQPREPQVYTLPPSREEMTKNQVSLTCLVKGFYPSDIAVEWESNGQPENNYKTTPPVLDSDGSFFLYSKLTVDKSRWQQGNVFSCSVMHEALHNHYTQKSLSLSPGK ?
Ans. 12
